Cited source for all entries: patent US20150203579A1

system-under-test: T1, human PD-1 dimer (human PD-1-mFc or human PD-1-hFc) (human, UniProt Q15116 25-170)
T1 construct: also called hPD-1-mFc; hPD1-hFc
T1 sequence (Q15116 25-170 C93S): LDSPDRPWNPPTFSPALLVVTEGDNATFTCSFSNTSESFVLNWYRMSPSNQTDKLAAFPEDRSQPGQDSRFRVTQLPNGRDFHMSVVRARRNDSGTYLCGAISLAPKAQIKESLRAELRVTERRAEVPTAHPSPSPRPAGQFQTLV
assay-overview: SPR, mAb captured, 25C;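 also: surface plasmon resonance on Biacore, PD-1 flowed over captured anti-PD-1 antibodies, rate constants from a 1:1 binding model fit, KD taken as kd/ka and t½ as ln2/(60·kd)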
measured-metric: koff (s⁻¹)
One number for each entry, in s⁻¹.

Example cases with answers are listed next.
{"binder": "H1M7799N (antibody, mouse IgG1, V domains shown, Human variable regions, mouse IgG1 Fc) VH: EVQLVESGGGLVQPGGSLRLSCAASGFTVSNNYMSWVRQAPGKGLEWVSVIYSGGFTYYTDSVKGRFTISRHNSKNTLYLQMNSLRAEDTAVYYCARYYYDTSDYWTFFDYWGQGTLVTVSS VL: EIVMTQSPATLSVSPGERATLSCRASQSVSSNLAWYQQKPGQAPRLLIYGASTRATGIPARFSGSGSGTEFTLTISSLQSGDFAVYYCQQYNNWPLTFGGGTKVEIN", "endpoint-unit": "s⁻¹", "koff": "8.55e-05"}
{"binder": "H2aM7795N (antibody, mouse IgG2a, V domains shown, Human variable regions, mouse IgG2a Fc; also called H2M7795N) VH: EVQVVESGGGLVEPGRSLRLSCKASGFTFDDYAMHWVRQTPGKALEWVSGINWSGNNIGYADSVKGRFTISKDDAKNSLYLQMNSLRPEDTALYYCTKDISITGTLDAFDVWGQGTMVTVSS VL: DIQMTQSPISVSASVGDRVTITCRASQGISNWLAWYQQKPGIAPKLLIYSASSLQSGVPSRFRGSGSGTDFTLTIGSLQPEDFATYYCQQAHSFPLTFGGGTKVEIK", "endpoint-unit": "s⁻¹", "koff": "3.14e-05"}
{"binder": "H2aM7796N (antibody, mouse IgG2a, V domains shown, Human variable regions, mouse IgG2a Fc; also called H2M7796N) VH: QVQLVESGGGVVQPGRSLRLSCAASGFTFSSYGMHWVRQAPGKGLEWVAIIWSDGDSEYNLDSVKGRFTISRDNSKNTLYLQMNSLRVEDSAVYYCARDRDLEDIWGQGTMVTVSS VL: DIQMTQSPSSLSASVGDRVTITCRASQGIRNDLGWYQQKPGKAPKRLIYAASNLQSGVPSRFSGSGSGTEFTLTISSLQPEDFATYYCLQHNSYPLTFGGGTKVEIK", "endpoint-unit": "s⁻¹", "koff": "8.67e-05"}
{"binder": "H4H7795N2 (antibody, human IgG4 S228P, kappa, V domains shown) VH: EVQVVESGGGLVEPGRSLRLSCKASGFTFDDYAMHWVRQTPGKALEWVSGISWSGNNIGYADSVKGRFTISKDDAKNSLYLQMNSLRPEDTALYYCTKDISITGTLDAFDVWGQGTMVTVSS VL: DIQMTQSPISVSASVGDRVTITCRASQGISNWLAWYQQKPGIAPKLLIYSASSLQSGVPSRFRGSGSGTDFTLTIGSLQPEDFATYYCQQAHSFPLTFGGGTKVEIKR", "endpoint-unit": "s⁻¹", "koff": "9.25e-05"}

Please state, for each entry, its recorded koff.
1. H2aM7798N (antibody, mouse IgG2a, V domains shown, Human variable regions, mouse IgG2a Fc; also called H2M7798N) VH: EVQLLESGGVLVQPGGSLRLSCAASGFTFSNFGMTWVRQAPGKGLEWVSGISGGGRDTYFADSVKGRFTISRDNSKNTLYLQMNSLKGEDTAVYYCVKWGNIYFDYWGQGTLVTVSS VL: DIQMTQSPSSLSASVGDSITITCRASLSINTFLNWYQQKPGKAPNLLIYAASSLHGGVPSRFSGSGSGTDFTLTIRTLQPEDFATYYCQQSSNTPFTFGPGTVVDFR
2. H4H7798N (antibody, human IgG4 S228P, kappa, V domains shown) VH: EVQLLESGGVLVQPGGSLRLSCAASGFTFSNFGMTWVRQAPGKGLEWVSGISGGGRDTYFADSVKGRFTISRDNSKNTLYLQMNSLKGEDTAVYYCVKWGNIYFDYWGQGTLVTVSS VL: DIQMTQSPSSLSASVGDSITITCRASLSINTFLNWYQQKPGKAPNLLIYAASSLHGGVPSRFSGSGSGTDFTLTIRTLQPEDFATYYCQQSSNTPFTFGPGTVVDFRR
3. H2aM7791N (antibody, mouse IgG2a, V domains shown, Human variable regions, mouse IgG2a Fc; also called H2M7791N) VH: QMQLQQWGAGLLKPSETLSLTCVVYGGSLNGYYWSWIRQSPGKGLEWIGEIDHSGSTNYNPSLKNRVTMSVDTSKIQFSLKLTSVTVADTAVYYCAREGLLPFDYWGQGTLVTVSS VL: EIVLTQSPGTLSLSPGERVTLSCRASQSVYSNYLAWYQQNPGQAPRLLIYAASNRATGIPDRFSGSGSGTDFTLTISRLEPEDFAVYYCHQYATSPWTFGQGTKVEIK
4. H2aM7780N (antibody, mouse IgG2a, V domains shown, Human variable regions, mouse IgG2a Fc (H2aM prefix); also called H2M7780N) VH: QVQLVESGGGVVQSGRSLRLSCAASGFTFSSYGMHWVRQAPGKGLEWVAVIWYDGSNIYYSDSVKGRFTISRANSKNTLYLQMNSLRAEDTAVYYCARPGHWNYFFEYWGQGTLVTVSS VL: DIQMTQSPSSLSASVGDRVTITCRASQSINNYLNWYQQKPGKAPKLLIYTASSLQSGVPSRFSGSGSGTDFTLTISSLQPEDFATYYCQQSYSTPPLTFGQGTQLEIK
5. H1M7800N (antibody, mouse IgG1, V domains shown, Human variable regions, mouse IgG1 Fc) VH: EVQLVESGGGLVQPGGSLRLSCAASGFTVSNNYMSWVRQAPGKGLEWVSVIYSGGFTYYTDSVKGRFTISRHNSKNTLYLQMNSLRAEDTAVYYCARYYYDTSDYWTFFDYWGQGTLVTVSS VL: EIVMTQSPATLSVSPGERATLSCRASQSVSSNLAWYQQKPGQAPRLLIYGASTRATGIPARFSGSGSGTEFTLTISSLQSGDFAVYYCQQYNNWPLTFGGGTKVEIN

2.29e-05
5.4e-05
0.000101
9.94e-06
7.72e-05

Per the record, H1M7789N (antibody, mouse IgG1, V domains shown, Human variable regions, mouse IgG1 Fc) VH: EVQLLESGGGLVQPGGSLRLSCSASGFTFSSYTMNWVRQAPGKGLEWVSGISDTGGNTYYTDSVKGRFTVSRDNSKNTLSLQMNSLRAEDTAVYYCAKDQGGSYPYYFHYWGQGSLVTVSS VL: DIQMTQSPSSLSASVGDRVTITCRASQSISSYLIWYQQKPGTAPKFLIYAASSLQSGVPSRFSGCGSGTDFTLTISSLQPEDFATYYCQQSYSTPPITFGQGTRLEIK has koff of 4.31e-05
